system: Tyrosine-protein kinase receptor UFO (Homo sapiens, UniProt P30530)
Sequence (P30530 whole entry): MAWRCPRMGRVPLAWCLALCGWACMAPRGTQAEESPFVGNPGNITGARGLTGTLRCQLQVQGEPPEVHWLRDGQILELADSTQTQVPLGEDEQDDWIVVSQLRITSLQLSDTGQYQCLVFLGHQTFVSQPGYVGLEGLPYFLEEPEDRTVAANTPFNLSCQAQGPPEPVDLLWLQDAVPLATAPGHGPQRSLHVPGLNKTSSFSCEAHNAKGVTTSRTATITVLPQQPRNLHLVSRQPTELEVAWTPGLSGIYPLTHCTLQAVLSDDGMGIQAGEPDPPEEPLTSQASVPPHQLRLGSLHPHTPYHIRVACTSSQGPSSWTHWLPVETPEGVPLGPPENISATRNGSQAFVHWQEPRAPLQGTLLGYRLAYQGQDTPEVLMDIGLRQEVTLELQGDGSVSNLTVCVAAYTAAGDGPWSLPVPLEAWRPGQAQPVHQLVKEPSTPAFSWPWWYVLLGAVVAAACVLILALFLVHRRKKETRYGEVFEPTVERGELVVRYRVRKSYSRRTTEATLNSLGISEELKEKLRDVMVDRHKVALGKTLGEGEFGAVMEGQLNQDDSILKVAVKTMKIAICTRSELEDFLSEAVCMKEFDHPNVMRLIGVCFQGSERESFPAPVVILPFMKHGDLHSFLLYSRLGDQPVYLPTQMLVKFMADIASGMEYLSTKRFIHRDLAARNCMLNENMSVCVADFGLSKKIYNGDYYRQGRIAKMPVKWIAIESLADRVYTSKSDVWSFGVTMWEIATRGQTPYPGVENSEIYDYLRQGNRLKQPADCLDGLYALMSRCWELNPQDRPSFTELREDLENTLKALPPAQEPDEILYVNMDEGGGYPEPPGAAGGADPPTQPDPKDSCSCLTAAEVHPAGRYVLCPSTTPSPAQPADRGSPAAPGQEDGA
experimentSummary: Inhibition of AXL (unknown origin) phosphorylation after 1 hr by ELISA
Mark label 1 for IC50 under 30 nM, label 0 if at or over.

[
  {
    "compound": "COc1cc2c(Oc3ccc(NS(=O)(=O)c4ccccc4C(F)(F)F)cc3F)ccnc2cc1OCCCN1CCOCC1",
    "system": "Tyrosine-protein kinase receptor UFO (Homo sapiens, UniProt P30530)",
    "assignedCategory": "label 1"
  },
  {
    "compound": "COc1cc2nccc(Oc3ccc(NS(=O)(=O)c4c(F)cccc4F)c(F)c3)c2cc1OC",
    "system": "Tyrosine-protein kinase receptor UFO (Homo sapiens, UniProt P30530)",
    "assignedCategory": "label 0"
  },
  {
    "compound": "COc1cc2c(Oc3ccc(NS(=O)(=O)c4ccccc4OC(F)(F)F)cc3F)ccnc2cc1OCCCN1CCN(C)CC1",
    "system": "Tyrosine-protein kinase receptor UFO (Homo sapiens, UniProt P30530)",
    "assignedCategory": "label 0"
  },
  {
    "compound": "COc1cc2c(Oc3ccc(NS(=O)(=O)c4cc(F)ccc4F)cc3F)ccnc2cc1OCCCN1CCCC(C)C1 (centres undefined)",
    "system": "Tyrosine-protein kinase receptor UFO (Homo sapiens, UniProt P30530)",
    "assignedCategory": "label 1"
  },
  {
    "compound": "COc1cc2c(Oc3ccc(NS(=O)(=O)c4c(F)cccc4F)cc3F)ccnc2cc1OCCCN1CCN(C)CC1",
    "system": "Tyrosine-protein kinase receptor UFO (Homo sapiens, UniProt P30530)",
    "assignedCategory": "label 0"
  },
  {
    "compound": "COc1cc2nccc(Oc3ccc(NS(=O)(=O)c4ccc(F)c(Cl)c4)c(F)c3)c2cc1OC",
    "system": "Tyrosine-protein kinase receptor UFO (Homo sapiens, UniProt P30530)",
    "assignedCategory": "label 0"
  },
  {
    "compound": "COc1cc2c(Oc3ccc(NS(=O)(=O)c4cc(F)ccc4F)cc3F)ccnc2cc1OCC(=O)N(C)C",
    "system": "Tyrosine-protein kinase receptor UFO (Homo sapiens, UniProt P30530)",
    "assignedCategory": "label 0"
  },
  {
    "compound": "COc1cc2c(Oc3ccc(NS(=O)(=O)c4cc(F)ccc4F)cc3F)ccnc2cc1OCCCN1CCN(C)CC1",
    "system": "Tyrosine-protein kinase receptor UFO (Homo sapiens, UniProt P30530)",
    "assignedCategory": "label 1"
  },
  {
    "compound": "COc1cc2c(Oc3ccc(NS(=O)(=O)c4ccccc4C(F)(F)F)cc3F)ccnc2cc1OCCCN1CCN(C)CC1",
    "system": "Tyrosine-protein kinase receptor UFO (Homo sapiens, UniProt P30530)",
    "assignedCategory": "label 1"
  }
]
